// data source = PubChem BioAssay (Tox21)

- assayExplanation: qHTS assay to identify small molecule antagonists of the estrogen receptor alpha (ER-alpha) signaling pathway using the BG1 cell line - cell viability counter screen (AID 743081);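 further: compound given together with 17beta-estradiol as the ER stimulus; nearly all actives have a fitted effect of over 45% in size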
- setupConditions: BG1Luc4E2 viability, CellTiter-Fluor, 22 h; series mostly up to 70.3 µM
Results filed as inconclusive are left out. Active and inactive are the calls of the source. The call rests on the fitted dose curve; in most records, active means well fitted cell-killing curve with a large enough effect in the repeat runs; inconclusive means weak or mixed curves, or effect the other way; inactive means flat fitted curve, though single readings scatter.
The reply should be one of these categories: active, inactive

Illustrative cases are given below, each with its answer.
Cc1c(N)cccc1[N+](=O)[O-]; inactive
Nc1cccc([N+](=O)[O-])c1; inactive
CCCCNc1ccc(C(=O)OCCOCCOCCOCCOCCOCCOCCOCCOCCOC)cc1; inactive
C=C(C)C(=O)OCCOCC; inactive
O=C(NCCO[N+](=O)[O-])c1cccnc1; inactive

### Prompt Record request — test call for CCOc1ccc(O)cc1
### Response inactive

### Prompt How was CC(C)OC(=O)C(C)N(C(=O)c1ccccc1)c1ccc(F)c(Cl)c1 (centres undefined) classified in this test?
### Response inactive

### Prompt What was the test verdict on CCN(CC)CCNC(=O)c1cc(Br)c(N)cc1OC ?
### Response inactive

### Prompt # lookup: test call for O=[N+]([O-])c1ccc(NCCO)c(OCCO)c1
### Response active

### Prompt Called result for COc1ccc(C(=O)N2CCN(CC(=O)N3CCOCC3)CC2)cc1
### Response inactive

### Prompt I would be grateful if you could indicate the recorded call for COc1cc(C(=O)OCCCN2CCCN(CCCOC(=O)c3cc(OC)c(OC)c(OC)c3)CC2)cc(OC)c1OC .
### Response active

### Prompt What was the test verdict on CC(C)C[C@H]1C(=O)N2CCC[C@H]2[C@]2(O)O[C@](NC(=O)[C@@H]3C=C4c5cccc6[nH]c(Br)c(c56)C[C@H]4N(C)C3)(C(C)C)C(=O)N12 ?
### Response inactive

### Prompt For CC(C)O.CC(C)O.CCOC(=O)/C=C(\C)O.CCOC(=O)/C=C(\C)O.[Ti] , what call appears in the results of this test?
### Response inactive

### Prompt What outcome does the record of this test show for O=C1CCCCCCCCCCCC(=O)OCCO1 ?
### Response inactive

### Prompt Which outcome was entered for the molecule NCC(=O)O in this test?
### Response inactive

### Prompt Returns: the outcome recorded for O=C(O)c1ccco1 in this assay.
### Response inactive

### Prompt State the result this test recorded for COC(=O)c1ccc(I)cc1S(=O)(=O)NC(=O)Nc1nc(C)nc(OC)n1 .
### Response inactive

### Prompt Assay result, entry O=C(O)CC(=O)C(=O)O — outcome?
### Response inactive

### Prompt Each molecule tested received a call. Report the one for O=C1OC(=O)C2C3C=CC(C3)C12 (centres undefined) .
### Response inactive

### Prompt // param item: CCCCCCCCCCCCN1CCCCCC1=O ; yields the recorded call
### Response inactive

### Prompt # fetch the recorded call for CCN(CC)CCOC(=O)C(Cc1cccc2ccccc12)CC1CCCO1 (centres undefined) here
### Response inactive

### Prompt Status in this test for CCCCC/C=C\C/C=C\CCCCCCCC(=O)NC(C)c1ccccc1 (centres undefined) ?
### Response inactive

### Prompt I would be grateful if you could indicate the recorded call for N=c1ccn2c(n1)O[C@H]1[C@H](O)[C@@H](CO)O[C@H]12 .
### Response inactive

### Prompt Which outcome was entered for the molecule C=CCOC(=O)CCC1CCCCC1 in this test?
### Response inactive

### Prompt I would be grateful if you could indicate the recorded call for COc1ccnc(CS(=O)c2nc3ccc(OC(F)F)cc3[nH]2)c1OC (centres undefined) .
### Response inactive

### Prompt Tell me the recorded outcome of this test for COc1ccc(C)cc1[N+](=O)[O-] .
### Response inactive
